Listed here are compounds together with their documented Activity.
tested_target: AMP-activated protein kinase (AMPK) alpha-1/beta-1/gamma-1 (Homo sapiens) (UniProt P54619+Q9Y478+Q13131)
Sequence (P54619 whole entry): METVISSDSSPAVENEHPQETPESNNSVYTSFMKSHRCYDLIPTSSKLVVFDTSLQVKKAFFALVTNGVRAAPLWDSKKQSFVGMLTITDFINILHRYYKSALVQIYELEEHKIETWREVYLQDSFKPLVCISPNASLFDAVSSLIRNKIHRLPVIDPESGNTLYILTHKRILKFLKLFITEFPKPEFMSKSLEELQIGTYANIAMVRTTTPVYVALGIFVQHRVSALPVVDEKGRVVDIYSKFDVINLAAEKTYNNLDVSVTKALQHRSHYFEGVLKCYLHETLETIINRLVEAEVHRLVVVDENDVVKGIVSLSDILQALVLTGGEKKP
Sequence (Q13131 whole entry partner): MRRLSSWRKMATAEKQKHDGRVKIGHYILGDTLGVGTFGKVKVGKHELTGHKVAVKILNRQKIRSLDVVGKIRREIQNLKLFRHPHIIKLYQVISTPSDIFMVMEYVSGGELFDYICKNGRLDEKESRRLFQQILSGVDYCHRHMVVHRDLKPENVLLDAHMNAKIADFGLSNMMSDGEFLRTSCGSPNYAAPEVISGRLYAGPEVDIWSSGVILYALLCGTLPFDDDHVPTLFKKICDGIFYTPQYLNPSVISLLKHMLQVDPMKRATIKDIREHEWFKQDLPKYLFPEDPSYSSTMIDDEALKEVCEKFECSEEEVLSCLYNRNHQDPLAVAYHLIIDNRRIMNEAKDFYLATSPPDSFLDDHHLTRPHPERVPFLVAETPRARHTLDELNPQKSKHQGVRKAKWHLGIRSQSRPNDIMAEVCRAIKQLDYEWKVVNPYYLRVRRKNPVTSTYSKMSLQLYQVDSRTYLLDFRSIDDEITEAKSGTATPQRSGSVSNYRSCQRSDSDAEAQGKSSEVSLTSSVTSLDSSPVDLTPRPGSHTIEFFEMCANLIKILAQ
Sequence (Q9Y478 2-270 partner limits assumed): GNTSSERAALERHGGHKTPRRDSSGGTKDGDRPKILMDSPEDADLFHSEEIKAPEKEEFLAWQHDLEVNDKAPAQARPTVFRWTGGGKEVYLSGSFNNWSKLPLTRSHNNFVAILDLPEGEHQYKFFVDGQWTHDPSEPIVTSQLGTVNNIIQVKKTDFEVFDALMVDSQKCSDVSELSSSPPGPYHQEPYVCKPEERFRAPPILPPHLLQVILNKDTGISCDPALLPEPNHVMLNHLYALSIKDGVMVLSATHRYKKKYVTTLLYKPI
procedure_summary: Activation of recombinant AMPK alpha1/beta1/gamma1 (unknown origin) at 1 uM relative to control
Assay type: protein-complex assay
condition_details: filed as activator
Return type: number; implicit unit %.

[
  {
    "compound": "CC(=O)N/C(N)=N/C(=N/S(=O)(=O)c1ccc(OC(F)(F)F)cc1)N1CC(c2ccccc2)C(c2ccc(Cl)cc2)=N1 (centres undefined)",
    "Activity / %": 125
  },
  {
    "compound": "CC(C)(N/C(N)=N/C(=N/S(=O)(=O)c1ccc(Cl)cc1)N1CC(c2ccccc2)C(c2ccc(Cl)cc2)=N1)c1ccccc1 (centres undefined)",
    "Activity / %": 100
  },
  {
    "compound": "CON(C)/C(N)=N/C(=N/S(=O)(=O)c1ccc(Cl)cc1)N1CC(c2ccccc2)C(c2ccc(Cl)cc2)=N1 (centres undefined)",
    "Activity / %": 137
  }
]

Please look at the following compound next.
Tell me its Activity given CC(=O)N/C(N)=N/C(=N/S(=O)(=O)N1CCC(F)(F)CC1)N1CC(c2ccccc2)C(c2ccc(Cl)cc2)=N1 (centres undefined) as the entry.
142
